pIC50: recorded values
test system: MOLM-13 cell line; test: MOLM-13 cell proliferation assay (alamarBlue); assay type: cell-based; details: Homo sapiens, inhibition of proliferation of MOLM-13 cells (acute myeloid leukaemia), 96 hours incubation
pIC50: −log10 of the molar value.
REPORTED ENDPOINT: pIC50

>  <COMPOUND>
C[C@@H]1C(=O)N(C)c2ccc(Nc3ccc(C(=O)NCCN(C)C)cc3)nc2N1C1CCOCC1 [Example 48]

>  <REPORTED ENDPOINT>
pIC50

>  <ASSAY VALUE>
6.23

$$$$
>  <COMPOUND>
C[C@@H]1C(=O)N(C)c2ccc(Nc3ccc(C(=O)NC4CN(C)C4)cc3)nc2N1C1CCCCC1 [Example 30]

>  <REPORTED ENDPOINT>
pIC50

>  <ASSAY VALUE>
6.53

$$$$
>  <COMPOUND>
C[C@@H]1C(=O)N(C)c2ccc(Nc3ccc(C(=O)NC4CCC(O)CC4)cc3)nc2N1Cc1ccccc1 (some centres unmarked) [Example 42]

>  <REPORTED ENDPOINT>
pIC50

>  <ASSAY VALUE>
6.49

$$$$
>  <COMPOUND>
CC(C)N1c2nc(Nc3ccc(C(=O)N4CC5(CCS5(=O)=O)C4)cc3)ccc2N(C)C(=O)[C@H]1C [Example 9]

>  <REPORTED ENDPOINT>
pIC50

>  <ASSAY VALUE>
6.16

$$$$
>  <COMPOUND>
COc1cc(C(=O)NCCN2CCN(C(=O)OC(C)(C)C)CC2)ccc1Nc1ccc2c(n1)N(C(C)C)[C@H](C)C(=O)N2C [Example 4]

>  <REPORTED ENDPOINT>
pIC50

>  <ASSAY VALUE>
5.95

$$$$
>  <COMPOUND>
C[C@@H]1C(=O)N(C)c2ccc(Nc3ccc(C(=O)N[C@H]4CC[C@H](N5CCN(CC6CC6)CC5)CC4)cc3)nc2N1C1CCCCC1 [Example 68]

>  <REPORTED ENDPOINT>
pIC50

>  <ASSAY VALUE>
6.26

$$$$
>  <COMPOUND>
CC(C)N1CCN(S(=O)(=O)c2ccc(Nc3ccc4c(n3)N(C3CCCC3)[C@H](C)C(=O)N4C)cc2)CC1 [Example 102]

>  <REPORTED ENDPOINT>
pIC50

>  <ASSAY VALUE>
6.67

$$$$
>  <COMPOUND>
C[C@@H]1C(=O)N(C)c2ccc(Nc3ccc(S(=O)(=O)N(C)C)cc3)nc2N1C1CCCC1 [Example 103]

>  <REPORTED ENDPOINT>
pIC50

>  <ASSAY VALUE>
6.75

$$$$
>  <COMPOUND>
C[C@@H]1C(=O)N(C)c2ccc(Nc3ccc(S(=O)(=O)NCc4ccccn4)cc3)nc2N1C1CCOCC1 [Example 25]

>  <REPORTED ENDPOINT>
pIC50

>  <ASSAY VALUE>
6.41

$$$$
>  <COMPOUND>
C[C@@H]1C(=O)N(C)c2ccc(Nc3ccc(C(=O)NC4CCN(C)CC4)cc3)nc2N1C1CCOCC1 [Example 58]

>  <REPORTED ENDPOINT>
pIC50

>  <ASSAY VALUE>
6.47

$$$$
>  <COMPOUND>
C[C@@H]1C(=O)N(C)c2ccc(Nc3ccc(S(=O)(=O)N[C@H]4CC[C@H](N5CCN(CC6CC6)CC5)CC4)cc3)nc2N1C1CCOCC1 [Example 15]

>  <REPORTED ENDPOINT>
pIC50

>  <ASSAY VALUE>
7.21

$$$$
>  <COMPOUND>
COc1cc(C(=O)N2CCN(C)CC2)ccc1Nc1ccc2c(n1)N(C1CCOCC1)[C@H](C)C(=O)N2C [Example 45]

>  <REPORTED ENDPOINT>
pIC50

>  <ASSAY VALUE>
6.27

$$$$
>  <COMPOUND>
COc1cc(C(=O)N2CCC(N3CCCCC3)CC2)ccc1Nc1ccc2c(n1)N(C1CCOCC1)[C@H](C)C(=O)N2C [Example 53]

>  <REPORTED ENDPOINT>
pIC50

>  <ASSAY VALUE>
6.60

$$$$
>  <COMPOUND>
CC(=O)N1CCC(NC(=O)c2ccc(Nc3ccc4c(n3)N(Cc3ccccc3)[C@H](C)C(=O)N4C)cc2)CC1 [Example 78]

>  <REPORTED ENDPOINT>
pIC50

>  <ASSAY VALUE>
6.61

$$$$

----------
IC50: recorded values
target: BRD4 bromo domain 2 [BRD4(2)] (Homo sapiens); construct: N-terminally His6-tagged BRD4(2) (amino acids 357-445); assay: BRD4(2)/acetylated peptide H4 binding assay (TR-FRET); conditions: inhibition of interaction between His6-tagged BRD4(2) (amino acids 357-445) and acetylated histone H4 peptide

>  <MOLECULE>
C[C@@H]1C(=O)N(C)c2ccc(Nc3ccc(C(=O)NC4CN(C)C4)cc3)nc2N1C1CCCCCC1

>  <IC50>
98 nM

$$$$
>  <MOLECULE>
C[C@@H]1C(=O)N(C)c2ccc(Nc3ccc(C(=O)N4CC5(CCS5(=O)=O)C4)cc3)nc2N1Cc1ccccc1

>  <IC50>
82 nM

$$$$
>  <MOLECULE>
C[C@@H]1C(=O)N(C)c2ccc(Nc3ccc(C(=O)NC4CCC(O)CC4)cc3)nc2N1C1CCCCCC1 (stereo partly shown)

>  <IC50>
208 nM

$$$$
>  <MOLECULE>
C[C@@H]1C(=O)N(C)c2ccc(Nc3ccc(C(=O)NCCN4CCN(C)CC4)cc3)nc2N1Cc1ccccc1

>  <IC50>
23 nM

$$$$
>  <MOLECULE>
COc1cc(C(=O)NC2CCC(O)CC2)ccc1Nc1ccc2c(n1)N(C1CCOCC1)[C@H](C)C(=O)N2C (stereo partly shown)

>  <IC50>
212 nM

$$$$
>  <MOLECULE>
C[C@@H]1C(=O)N(C)c2ccc(Nc3ccc(S(=O)(=O)NCc4ccccn4)cc3)nc2N1C1CCOCC1

>  <IC50>
94 nM

$$$$
>  <MOLECULE>
COc1cc(C(=O)NC2CCC(N3CCC(F)(F)CC3)CC2)ccc1Nc1ccc2c(n1)N(C1CCOCC1)[C@H](C)C(=O)N2C (stereo partly shown)

>  <IC50>
146 nM

$$$$

----------
IC50: recorded values
biological target: BRD4 bromo domain 2 [BRD4(2)] (Homo sapiens, UniProt O60885); construct: N-terminally His6-tagged BRD4(2) (amino acids 357-445); experiment: BRD4(2)/acetylated peptide H4 binding assay (TR-FRET); conditions: inhibition of interaction between His6-tagged BRD4(2) (amino acids 357-445) and acetylated histone H4 peptide

>  <ENTRY SMILES>
COc1cc(C(=O)N2CCN(C(C)C)CC2)ccc1Nc1ccc2c(n1)N(C1CCCCCC1)[C@H](C)C(=O)N2C

>  <READOUT UNITS>
nM

>  <IC50>
161

$$$$
>  <ENTRY SMILES>
C[C@@H]1C(=O)N(C)c2ccc(Nc3ccc(S(=O)(=O)N(C)C)cc3)nc2N1C1CCCC1

>  <READOUT UNITS>
nM

>  <IC50>
51

$$$$
>  <ENTRY SMILES>
COc1cc(C(=O)NCCN2CCOCC2)ccc1Nc1ccc2c(n1)N(C(C)C)[C@H](C)C(=O)N2C

>  <READOUT UNITS>
nM

>  <IC50>
472

$$$$
>  <ENTRY SMILES>
C[C@@H]1C(=O)N(C)c2ccc(Nc3ccc(C(=O)N[C@H]4CC[C@H](N5CCN(CC6CC6)CC5)CC4)cc3)nc2N1C1CCCCCC1

>  <READOUT UNITS>
nM

>  <IC50>
283

$$$$
>  <ENTRY SMILES>
COc1cc(C(=O)NCCN2CCN(C)CC2)ccc1Nc1ccc2c(n1)N(C1CCOCC1)[C@H](C)C(=O)N2C

>  <READOUT UNITS>
nM

>  <IC50>
81

$$$$
>  <ENTRY SMILES>
COc1cc(C(=O)NC2CCN(C(C)=O)CC2)ccc1Nc1ccc2c(n1)N(C1CCCCC1)[C@H](C)C(=O)N2C

>  <READOUT UNITS>
nM

>  <IC50>
145

$$$$
>  <ENTRY SMILES>
COc1cc(C(=O)N2CC3(CCS3(=O)=O)C2)ccc1Nc1ccc2c(n1)N(C1CCCCCC1)[C@H](C)C(=O)N2C

>  <READOUT UNITS>
nM

>  <IC50>
165

$$$$

----------
target: BRD4 bromo domain 2 [BRD4(2)] (Homo sapiens); construct: N-terminally His6-tagged BRD4(2) (amino acids 357-445); assay: BRD4(2)/acetylated peptide H4 binding assay (TR-FRET); settings: inhibition of interaction between His6-tagged BRD4(2) (amino acids 357-445) and acetylated histone H4 peptide
pIC50: −log10 of the molar value.
REPORTED ENDPOINT: pIC50

>  <ENTRY SMILES>
CC(C)N1c2nc(Nc3ccc(S(=O)(=O)N4CCOCC4)cc3)ccc2N(C)C(=O)[C@H]1C

>  <ASSAY VALUE>
6.98

$$$$
>  <ENTRY SMILES>
C[C@@H]1C(=O)N(C)c2ccc(Nc3ccc(S(=O)(=O)NCCc4cccnc4)cc3)nc2N1C1CCOCC1

>  <ASSAY VALUE>
6.73

$$$$
>  <ENTRY SMILES>
COc1cc(C(=O)N[C@H]2CC[C@H](NC(=O)OC(C)(C)C)CC2)ccc1Nc1ccc2c(n1)N(C1CCOCC1)[C@H](C)C(=O)N2C

>  <ASSAY VALUE>
6.49

$$$$
>  <ENTRY SMILES>
C[C@@H]1C(=O)N(C)c2ccc(Nc3ccc(C(=O)N4CCN(C)CC4)cc3)nc2N1C1CCOCC1

>  <ASSAY VALUE>
6.62

$$$$
